Test system: MCF7 breast
assay_info: NCI tumour cell line growth inhibition, 48 h
readout_type: GI50

[[record]]
compound = "CCCC(=O)Nc1c(I)cc(I)c(CC(CC)C(=O)O)c1I (stereo unspecified)"
readout_type = "GI50"
observed = "> 100000 nM"


Ask | Which GI50 is reported with MCF7 breast for this entry: Cc1cc(C)c(O)c(CNCCCNCc2cc(C)cc(C)c2O)c1 ?
Reply | 1670 nM

Ask | Which GI50 is reported with MCF7 breast for this entry: Cc1ccc(-n2c3c(c4c(CN)c(O)ccc42)CCc2ccccc2C3=O)cc1 ?
Reply | 17300 nM

----------
Test system: U251 CNS
assay_info: NCI tumour cell line growth inhibition, 48 h
Below, each entry is listed with its recorded TGI.

Consider the following illustrative entries.
[[record]]
molecule = "C/C=C(\\C)C(=O)N1c2ccccc2CC1c1c(C)[nH]c2ccccc12 (stereo not given)"
readout_type = "TGI"
observed = "> 100 µM"

[[record]]
molecule = "CC(C)(C)OC(=O)N1CCC(NC(=O)NC2CCN(C(=O)OC(C)(C)C)CC2)CC1"
readout_type = "TGI"
observed = "> 100 µM"

[[record]]
molecule = "CCSc1nc(C)nc2c1sc1nc3ccccc3n12"
readout_type = "TGI"
observed = "> 100 µM"

[[record]]
molecule = "COc1ccc2c(c1)c(=O)c1c(NCCCN(C)C)ccc3ncn2c31"
readout_type = "TGI"
observed = "5.93 µM"


Note: attention shifts to another entry.
Ask | Which TGI value is on record for C=CCN(c1cc(OC)c2c(c1[N+](=O)[O-])C(C)(SC)C(=O)N2)S(C)(=O)=O (stereo not given) ?
Reply | > 100 µM

----------
System: HCT-116 colon
assay_info: NCI tumour cell line growth inhibition, 48 h
readout_type: GI50

Consider the following illustrative entries.
[[record]]
compound = "COc1cccc(NC(=O)c2ccc(NC3=C(Cl)C(=O)N(Cc4ccccc4)C3=O)cc2)c1"
observed = "15 µM"

[[record]]
compound = "O=C1CCC(N2C(=O)c3cccc(NCCOCCOCCNC(=O)c4cc5c(o4)C(=O)c4ccccc4C5=O)c3C2=O)C(=O)N1 (stereo not given)"
observed = "2.32 µM"


Ask | Which GI50 value is on record for CCCc1n(Cc2ccc3ccccc3n2)cc[n+]1Cc1ccc2ccccc2c1 ?
Reply | 1.06 µM

Ask | Which GI50 value is on record for CCCCCCCCCC[N+](C)(C)C ?
Reply | 2.34 µM

Ask | Which GI50 value is on record for NC(Cc1c[nH]c2cc(F)ccc12)C(=O)O (stereo not given) ?
Reply | 1030 µM

----------
Below, each entry is listed with its recorded TGI.
Tested on: SK-MEL-28 melanoma
assay_info: NCI tumour cell line growth inhibition, 48 h

[[record]]
compound = "OC1(C2(c3ccc(Cl)cc3)CCCC2)c2ccccc2C2=NCCN21 (stereo unspecified)"
observed = "31 µM"

[[record]]
compound = "COCC(=O)NC/C=C/c1ccc2ncnc(Nc3ccc(Oc4ccc(C)nc4)c(C)c3)c2c1"
observed = "30.6 µM"

[[record]]
compound = "CCOC(=O)C(=O)C(/C(=N/N(C)C)C(=O)Nc1ccc(C)cc1C)c1nc2ccccc2[nH]c1=O (stereo unspecified)"
observed = "> 100 µM"


Ask | Which TGI value is on record for CCCC(=O)Nc1c(I)cc(I)c(CC(CC)C(=O)O)c1I (stereo unspecified) ?
Reply | > 100 µM

Ask | Which TGI value is on record for COc1cc(OC2OC(CO)C(O)C(O)C2O)c2c(c1)O[C@@H]1[C@H](O)Oc3cc(OC)c(OC)cc3[C@]1(O)C2=O (stereo partly specified) ?
Reply | > 25 µM

Ask | Which TGI value is on record for CC(=O)OCc1nnn2c1CCC2 ?
Reply | > 100 µM
